# TARGET ENTITY: adenosine A2A receptor (A2AR) (Rattus norvegicus)
# Construct: gene Adora2a; native full-length receptor in striatum membrane preparation of adult male Wistar rats
# MEASUREMENT DESCRIPTION: [3H]-ZM241385 competition, rat striatum membranes
# Assay type: binding
# CONDITIONS: 50 mM MgCl2 (medium I), 0.5 nM [3H]-ZM241385, pH 7.4, 25 °C, 60 min; parentheses = 95% CI
Rule for this label: yes means IC50 is less than 20 µM; no means IC50 is at least 20 µM.

COc1cccc(C(=O)N(C)/N=C/c2ccc[se]2)c1 = yes
CN(/N=C/c1cccs1)C(=O)c1ccc2c(c1)OCO2 = no
COc1cccc(C=NNC(=O)c2cccs2)c1 = no
COc1cccc(C(=O)N/N=C/c2ccc[se]2)c1 = yes

Please turn your attention to the following entry.
Hello, I'm reviewing records and need to know if IC50 of COc1cccc(C(=O)N(C)/N=C/c2cccs2)c1 is below 20 µM. Could you check?
no

* * *

# TARGET ENTITY: adenosine A2A receptor (A2AR) (Rattus norvegicus, UniProt P30543)
# Construct: gene Adora2a; native full-length receptor in striatum membrane preparation of adult male Wistar rats
# Sequence (P30543 whole entry): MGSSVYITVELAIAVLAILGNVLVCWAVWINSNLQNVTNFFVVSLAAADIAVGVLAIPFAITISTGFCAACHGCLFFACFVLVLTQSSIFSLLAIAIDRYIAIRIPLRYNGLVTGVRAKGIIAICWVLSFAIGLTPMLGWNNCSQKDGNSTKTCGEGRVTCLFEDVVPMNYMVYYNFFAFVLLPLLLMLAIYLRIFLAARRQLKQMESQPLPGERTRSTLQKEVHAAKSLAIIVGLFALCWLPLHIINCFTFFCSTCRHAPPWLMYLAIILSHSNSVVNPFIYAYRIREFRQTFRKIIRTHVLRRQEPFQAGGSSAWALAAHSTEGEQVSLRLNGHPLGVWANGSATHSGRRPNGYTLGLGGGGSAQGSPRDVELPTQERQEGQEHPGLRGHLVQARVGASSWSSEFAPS
# MEASUREMENT DESCRIPTION: [3H]-ZM241385 competition, rat striatum membranes
# Type: binding
# CONDITIONS: 50 mM MgCl2 (medium I), 0.5 nM [3H]-ZM241385, pH 7.4, 25 °C, 60 min; parentheses = 95% CI
ENDPOINT: IC50 (µM)
Give bare numbers, in µM.

For orientation, consider the following solved cases.
O=C(N/N=C/c1ccc[se]1)c1ccc2c(c1)OCO2 = 20.9
O=C(N/N=C/c1cccs1)c1ccc2c(c1)OCO2 = 38.9
COc1cccc(C=NNC(=O)c2ccc[se]2)c1 = 16.6

List reported IC50 for each of these molecules:
1. CN(/N=C/c1ccc[se]1)C(=O)c1ccc2c(c1)OCO2
2. COc1cccc(C(=O)N/N=C/c2cccs2)c1

1. 52.9
2. 10.8
